Species on record: Mus musculus
Experimental details: Ability to antagonize uterine weight gain in immature mice, at a dose of 150 ug; Activity is expressed as anti-uterotrophic % reduction
Assay type: functional
Design: scale not given: the % may be the effect or the level left
Entries and their measured Activity follow.
# output: bare number, implied unit %

Answered examples (5):
ClC1(Cl)C(c2ccccc2)C1(c1ccccc1)c1ccccc1 (centres undefined) :: 3
CCN(CC)CCOc1ccc(C(O)(Cc2ccc(OC)cc2)c2ccccc2)cc1 (centres undefined) :: 30
CC/C(=C(\c1ccccc1)c1ccc(OCCN(C)C)cc1)c1ccccc1 [TAMOXIFEN] :: 0
CN(C)CCOc1ccc(C2(c3ccccc3)C(c3ccccc3)C2(Cl)Cl)cc1 (centres undefined) :: 30
COc1ccc(C2C(Cl)(Cl)C2(c2ccc(O)cc2)c2ccc(OC)cc2)cc1 (centres undefined) :: 10

# input # return recorded Activity for entry COc1ccc(C2=C(Cl)C(c3ccc(OC)cc3)c3cc(OC)ccc32)cc1 (centres undefined)
# output -6

# input Tell me measured Activity for COc1ccc(C2(c3ccc(O)cc3)C(c3ccccc3)C2(Cl)Cl)cc1 (stereo in doubt; 6b) please.
# output -7

# input Determine from records and report Activity for COc1ccc(C2C(Cl)=C(c3ccc(OCc4ccccc4)cc3)c3ccc(OC)cc32)cc1 (centres undefined)
# output 4

----------
Catalogue of Activity readings, one per entry.
Organism: Mus musculus
Experimental details: Ability to antagonize uterine weight gain in immature mice, at a dose of 150 ug; Activity is expressed as anti-uterotrophic % reduction
Type: functional
Set-up: scale not given: the % may be the effect or the level left
Field: numeric (%). Do not append units.

Known Activity results, listed for orientation:
COc1ccc(C2(c3ccccc3)C(c3ccccc3)C2(Cl)Cl)cc1 (stereo unspecified) :: 49
COc1ccc(C2C(Cl)(Cl)C2(c2ccc(OC)cc2)c2ccc(OCc3ccccc3)cc2)cc1 (stereo unspecified) :: 49
COc1ccc(C2(c3ccc(O)cc3)C(c3ccccc3)C2(Cl)Cl)cc1 (stereo in doubt; 6c) :: 18
COc1ccc(C2C(Cl)=C(c3ccc(O)cc3)c3ccc(OC)cc32)cc1 (stereo unspecified) :: 14

# input State its Activity: COc1ccc(C2(c3ccc(OCCN(C)C)cc3)C(c3ccccc3)C2(Cl)Cl)cc1 (stereo unspecified)
# output 42

# input Indicate its recorded Activity; the compound in question is Oc1ccc(C2(c3ccccc3)C(c3ccccc3)C2(Cl)Cl)cc1 (stereo unspecified)
# output 12
